# targetOfAssay: 15-PGDH/HPGD (Homo sapiens, UniProt P15428)
# Sequence (P15428 whole entry): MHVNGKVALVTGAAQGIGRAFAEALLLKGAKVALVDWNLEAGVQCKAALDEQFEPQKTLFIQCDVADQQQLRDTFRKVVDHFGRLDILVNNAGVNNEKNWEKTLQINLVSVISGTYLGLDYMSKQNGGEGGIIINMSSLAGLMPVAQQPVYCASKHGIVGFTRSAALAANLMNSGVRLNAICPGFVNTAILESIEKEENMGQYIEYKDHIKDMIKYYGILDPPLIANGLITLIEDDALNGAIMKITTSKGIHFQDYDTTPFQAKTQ
# assayComment: hPGDH inhibitor screening biochemical assay
# protocolConditions: 10 nM enzyme, fluorescence ex/em 340/485 nm
pIC50: −log10 of the molar value.
assayEndpoint: pIC50

Recorded results for 6 compounds are shown here.
CC(C)=CC[S+]([O-])c1cnc2c(cnn2-c2cccc(-c3nnc[nH]3)c2)c1 (stereo not drawn) [Compound 15] ... > 7.00
[O-][S+](c1cnc2c(ccn2-c2ccc(-c3nnc[nH]3)cc2)c1)C1CCOCC1 (stereo not drawn) [Compound 64] ... > 7.00
[O-][S+](c1cnc2c(ccn2-c2ccc(-c3nnc[nH]3)cc2)c1)C1CCC(F)(F)CC1 (stereo not drawn) [Compound 75] ... > 7.00
COc1ccc(-c2cccc(-n3ncc4cc([S+]([O-])C5CCC5)cnc43)c2)cn1 (stereo not drawn) [Compound 90A] ... > 7.00
CC(C)CC[S+]([O-])c1cnc2c(cnn2-c2cccc(-c3nnc[nH]3)c2)c1 (stereo not drawn) [Compound 21B] ... > 7.00
CC(C)CC[S+]([O-])c1cnc2c(ccn2-c2cncc(-c3nnc[nH]3)c2)c1 (single isomer, unassigned) [Compound 53B] ... > 7.00

Please report pIC50 for every entry that follows.
1. CC(C)(O)C[S+]([O-])c1cnc2c(cnn2-c2cccc(-c3nnc[nH]3)c2)c1 (single isomer, unassigned) [Compound 101A]
2. [O-][S+](c1cnc2c(cnn2-c2cccc(-c3nnc[nH]3)c2)c1)C1CCOCC1 (stereo not drawn) [Compound 38]
3. COCC1CC([S+]([O-])c2cnc3c(cnn3-c3cccc(-c4nnc[nH]4)c3)c2)C1 (stereo not drawn) [Compound 109A]
4. CNC(=O)c1cccc(-c2cncc(-n3ncc4cc([S+]([O-])C5CCCC5)cnc43)c2)c1 (single isomer, unassigned) [Compound 16A]
5. O=S(=O)(c1cnc2c(cnn2-c2ccc(-c3nnc[nH]3)cc2)c1)C1CCOCC1 [Compound 37]
6. [O-][S+](c1cnc2c(cnn2-c2ccc(-c3nnc[nH]3)cc2)c1)C1CCC(F)(F)CC1 (stereo not drawn) [Compound 40]

1. ≤ 6.00
2. 6.00 to 7.00
3. 6.00 to 7.00
4. > 7.00
5. ≤ 6.00
6. > 7.00

====

Kindly supply the reported EC50 values for the records listed here.
# System: A549
# assayComment: A549 EC50 (cell assay, no method described)
# Format: cell-based
# protocolConditions: A549

Known results for compounds:
[O-][S+](c1cnc2c(cnn2-c2cncc(-c3nnc[nH]3)c2)c1)C1CCC1 (stereo not shown) [Compound 99A] ... 0.1 to 1 µM
COCCC[S+]([O-])c1cnc2c(cnn2-c2ccc(N3CCOC3=O)nc2)c1 (single isomer, unassigned) [Compound 115B] ... ≥ 1 µM
[O-][S+](c1cnc2c(cnn2-c2cccc(-c3ccc(O)nc3)c2)c1)C1CCC(F)(F)C1 (single isomer, unassigned) [Compound 5C] ... 0.1 to 1 µM

# context switch: different compound, same EC50
For [O-][S+](c1cnc2c(cnn2-c2cccc(-c3nnc[nH]3)c2)c1)C1C[C@@H]2C[C@@H]2C1 (single isomer, unassigned) [Compound 123B] , what is its reported EC50?
< 0.1 µM

====

# targetOfAssay: 15-PGDH/HPGD (Homo sapiens)
# Construct: purchased R&D System 5660-DH
# assayComment: hPGDH inhibitor screening biochemical assay
# protocolConditions: 10 nM enzyme, fluorescence ex/em 340/485 nm
# Source text: A hydroxyprostaglandin dehydrogenase inhibition screening biochemical assay can be performed to assess the synthesized inhibitors provided herein. Provided herein is an exemplary biochemical assay for hPGDH inhibitor screening. […]
assayEndpoint: IC50

O=C(O)c1ccc(-n2ncc3cc([S+]([O-])C4CC(F)(F)C4)cnc32)cc1 (single isomer, unassigned) [Compound 10A] ... 100 to 1000 nM
CN(C)c1nnc(-c2cccc(-n3ncc4cc([S+]([O-])C5CCC5)cnc43)c2)[nH]1 (stereo not shown) [Compound 100B] ... ≥ 1000 nM
CC(=O)Nc1cccc(-c2cncc(-n3ncc4cc([S+]([O-])C5CCCC5)cnc43)c2)c1 (single isomer, unassigned) [Compound 14B] ... 100 to 1000 nM
COCCC[S+]([O-])c1cnc2c(cnn2-c2ccc(N3CCOC3=O)nc2)c1 (single isomer, unassigned) [Compound 115B] ... ≥ 1000 nM
Cc1nnc(-c2cccc(-n3ncc4cc([S+]([O-])C5CC(F)(F)C5)cnc43)c2)[nH]1 (stereo not shown) [Compound 97A] ... < 100 nM

Hi, could you look up IC50 for each item in my list?
1. CC(C)CC[S+]([O-])c1cnc2c(cnn2-c2ccc(-c3nnn[nH]3)cc2)c1 (stereo not shown) [Compound 125A]
2. CC(C)CC[S+]([O-])c1cnc2c(ccn2-c2cccc(-c3nnc[nH]3)c2)c1 (racemic) [Compound 57]

1: < 100 nM; 2: < 100 nM
